Origin of measurements: patent US20260297060A1

# Protocol Notes: Pharmacokinetics in female BALB/c nude mice bearing A375 xenografts, 1 day dosing (PK and PD study): plasma, tumor and brain concentrations, AUC
# Assay type: in vivo
# Condition Details: mouse, tumor, po, 2 mg/kg, 2 mg/kg p.o. TID × 1 day; post 3rd dose; 1 h; read-out: Mean Concentration in Tumor ± SEM
Metric Name: concentration at 1 h

Q: Which concentration at 1 h is listed for CCN(C)S(=O)(=O)Nc1ccc(F)c(Oc2ccc3ncn([C@H]4COC5(CCN(C6CC7(C6)CN(c6cc8c(cc6F)c(N6CCC(=O)NC6=O)nn8C)C7)CC5)C4)c(=O)c3c2)c1C#N [Compound 26] ?
Result: 617 ng/g

###

Let's look at some compounds and their measured concentration at 6 h.
# Protocol Notes: Example 9 pharmacokinetics assay for the PK and PD study Part I, II and III (plasma, tumor, liver)
# Type: in vivo, BALB/c nude mice
# Condition Details: mouse, tumor, po; 10 mg/kg, p.o., single dose; 6 h; ± SEM; read-out: Mean Concentration in Tumor
Kindly provide the numeric value in ng/g only, without the unit symbol.

The examples below pair each entry with its known result.
CCN(C)S(=O)(=O)Nc1ccc(F)c(Oc2ccc3ncn(C4CC5(C4)CN(C4CCC(c6cc7c(cc6F)c(N6CCC(=O)NC6=O)nn7C)CC4)C5)c(=O)c3c2)c1C#N (single isomer, unassigned)
112
CO[C@@H]1CCN(S(=O)(=O)Nc2ccc(F)c(Oc3ccc4ncn([C@H]5COC6(CCN(C7CC8(C7)CN(c7cc9c(cc7F)c(N7CCC(=O)NC7=O)nn9C)C8)CC6)C5)c(=O)c4c3)c2C#N)C1
1180
CO[C@H]1CCN(S(=O)(=O)Nc2ccc(F)c(Oc3ccc4ncn([C@H]5COC6(CCN(C7CC8(C7)CN(c7cc9c(cc7F)c(N7CCC(=O)NC7=O)nn9C)C8)CC6)C5)c(=O)c4c3)c2C#N)C1
1990
CCN(C)S(=O)(=O)Nc1ccc(F)c(Oc2ccc3ncn(C4CC5(CCN(C6CC7(CCN(c8cc9c(cc8F)c(N8CCC(=O)NC8=O)nn9C)CC7)C6)CC5)C4)c(=O)c3c2)c1C#N (stereo not drawn)
1120
Cn1nc(N2CCC(=O)NC2=O)c2cc(F)c(N3CC4(CC(N5CCC6(CC5)C[C@@H](n5cnc7ccc(Oc8c(F)ccc(NS(=O)(=O)N9CC[C@@H](F)C9)c8C#N)cc7c5=O)CO6)C4)C3)cc21
686

Here's the next entry for you.
Q: Which concentration at 6 h is listed for CCN(C)S(=O)(=O)Nc1ccc(F)c(Oc2ccc3ncc(OC4CC5(CCN(C6CCC(c7cc8c(cc7F)c(N7CCC(=O)NC7=O)nn8C)CC6)CC5)C4)nc3c2)c1C#N (single isomer, unassigned) ?
Result: 1360

###

# Tested Target: BRAF V600E (Homo sapiens, UniProt P15056+Q96SW2, V600E)
# Construct: knock-in of the HiBiT tag to the endogenous BRAF V600E locus; host or cells: A375.10 (A375 clonal line, CRISPR HiBiT knock-in at the endogenous BRAF V600E locus)
# Sequence (P15056 whole entry V600E): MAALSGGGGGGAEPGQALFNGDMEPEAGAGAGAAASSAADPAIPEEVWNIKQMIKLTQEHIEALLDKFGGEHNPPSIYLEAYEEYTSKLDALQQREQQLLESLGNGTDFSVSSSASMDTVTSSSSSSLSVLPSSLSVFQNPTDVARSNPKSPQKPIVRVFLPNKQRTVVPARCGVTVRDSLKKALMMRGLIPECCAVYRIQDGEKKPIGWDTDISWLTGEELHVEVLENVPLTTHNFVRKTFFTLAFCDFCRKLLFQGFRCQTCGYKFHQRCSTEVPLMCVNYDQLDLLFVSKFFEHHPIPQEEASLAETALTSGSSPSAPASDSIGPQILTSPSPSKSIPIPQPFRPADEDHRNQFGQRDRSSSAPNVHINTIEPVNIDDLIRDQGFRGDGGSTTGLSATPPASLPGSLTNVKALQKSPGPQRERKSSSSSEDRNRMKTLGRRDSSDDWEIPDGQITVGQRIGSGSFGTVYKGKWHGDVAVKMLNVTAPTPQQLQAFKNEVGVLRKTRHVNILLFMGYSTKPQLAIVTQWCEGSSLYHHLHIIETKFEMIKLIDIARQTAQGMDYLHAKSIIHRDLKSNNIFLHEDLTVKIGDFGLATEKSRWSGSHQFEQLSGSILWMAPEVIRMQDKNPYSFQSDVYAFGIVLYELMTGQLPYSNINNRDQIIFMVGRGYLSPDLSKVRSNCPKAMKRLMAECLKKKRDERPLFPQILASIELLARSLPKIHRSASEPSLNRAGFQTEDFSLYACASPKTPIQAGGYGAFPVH
# Sequence (Q96SW2 whole entry): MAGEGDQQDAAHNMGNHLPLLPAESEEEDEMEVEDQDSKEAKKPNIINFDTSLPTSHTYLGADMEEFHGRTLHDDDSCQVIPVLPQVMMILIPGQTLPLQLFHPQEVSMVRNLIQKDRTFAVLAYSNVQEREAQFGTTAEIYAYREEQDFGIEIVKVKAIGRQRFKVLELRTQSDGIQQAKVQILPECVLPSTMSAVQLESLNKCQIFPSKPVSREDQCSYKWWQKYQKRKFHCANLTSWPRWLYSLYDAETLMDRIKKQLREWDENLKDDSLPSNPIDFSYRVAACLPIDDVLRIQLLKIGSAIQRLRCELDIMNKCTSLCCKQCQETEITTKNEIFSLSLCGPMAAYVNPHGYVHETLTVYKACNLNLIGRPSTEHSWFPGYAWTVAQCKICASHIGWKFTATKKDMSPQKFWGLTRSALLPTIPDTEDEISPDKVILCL
# Sequence (Q16531 whole entry partner): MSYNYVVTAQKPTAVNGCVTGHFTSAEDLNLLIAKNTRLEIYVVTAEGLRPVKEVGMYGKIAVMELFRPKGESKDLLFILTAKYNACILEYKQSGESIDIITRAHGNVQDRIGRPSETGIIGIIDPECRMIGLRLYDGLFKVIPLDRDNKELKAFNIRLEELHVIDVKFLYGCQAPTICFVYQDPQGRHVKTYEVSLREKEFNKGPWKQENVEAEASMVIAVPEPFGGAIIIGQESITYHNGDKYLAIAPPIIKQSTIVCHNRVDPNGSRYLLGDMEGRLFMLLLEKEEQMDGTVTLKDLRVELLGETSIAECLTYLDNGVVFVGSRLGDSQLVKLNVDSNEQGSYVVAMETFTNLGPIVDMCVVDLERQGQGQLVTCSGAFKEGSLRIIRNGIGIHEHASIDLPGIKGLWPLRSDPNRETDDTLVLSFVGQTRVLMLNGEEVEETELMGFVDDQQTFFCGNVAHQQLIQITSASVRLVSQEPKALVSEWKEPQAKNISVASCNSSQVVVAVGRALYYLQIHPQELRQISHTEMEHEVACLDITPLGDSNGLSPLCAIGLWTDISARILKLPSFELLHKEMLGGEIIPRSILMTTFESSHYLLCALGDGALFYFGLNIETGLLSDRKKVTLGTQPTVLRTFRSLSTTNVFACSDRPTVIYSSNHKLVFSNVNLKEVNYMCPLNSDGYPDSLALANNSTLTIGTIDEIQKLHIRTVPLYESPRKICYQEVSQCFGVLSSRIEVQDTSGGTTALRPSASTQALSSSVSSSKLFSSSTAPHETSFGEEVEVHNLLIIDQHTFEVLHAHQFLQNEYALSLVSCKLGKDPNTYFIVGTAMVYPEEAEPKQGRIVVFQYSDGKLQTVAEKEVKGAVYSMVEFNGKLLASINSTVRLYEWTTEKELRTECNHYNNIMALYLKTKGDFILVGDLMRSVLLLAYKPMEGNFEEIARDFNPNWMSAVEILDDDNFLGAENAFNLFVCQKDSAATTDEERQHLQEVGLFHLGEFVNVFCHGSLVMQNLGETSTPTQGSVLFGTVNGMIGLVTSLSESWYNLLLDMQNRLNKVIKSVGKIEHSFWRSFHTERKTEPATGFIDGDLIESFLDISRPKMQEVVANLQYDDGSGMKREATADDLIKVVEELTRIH
# Protocol Notes: BRAF V600E HiBiT Degradation Assay
# Assay type: cell-based
# Condition Details: A375.10 cells, BRAF V600E, 2 hours; inflection point; read-out: HiBiT-Degradation A375.10 BRAF 2 hours IP
Metric Name: DC50

CCN(C)S(=O)(=O)Nc1ccc(F)c(Oc2ccc3ncc(OC4CC5(CCN(C6CCC(c7cc8c(cc7F)c(N7CCC(=O)NC7=O)nn8C)CC6)CC5)C4)nc3c2)c1C#N (single isomer, unassigned) [Compound 219]
< 1000 nM
CN(CCO)S(=O)(=O)Nc1ccc(F)c(Oc2ccc3ncn([C@H]4COC5(CCN([C@H]6C[C@@H](c7cc8c(cc7F)c(N7CCC(=O)NC7=O)nn8C)C6)CC5)C4)c(=O)c3c2)c1C#N [Compound 165]
< 1000 nM
Cn1nc(N2CCC(=O)NC2=O)c2cc(F)c(C3CCC(N4CCC5(CC4)CC(n4cnc6ccc(Oc7c(F)ccc(NS(=O)(=O)C8CCCC8)c7C#N)cc6c4=O)C5)CC3)cc21 (single isomer, unassigned) [Compound 94]
< 1000 nM

Here's the next entry for you.
Q: Which DC50 is listed for CO[C@@H]1CCN(S(=O)(=O)Nc2ccc(F)c(Oc3ccc4ncn(C5CC6(CCN(C7CCC(c8cc9c(cc8F)c(N8CCC(=O)NC8=O)nn9C)CC7)CC6)C5)c(=O)c4c3)c2C#N)C1 (single isomer, unassigned) [Compound 102] ?
Result: < 1000 nM

###

# Tested Target: human bile salt export pump (BSEP) efflux transporter (Homo sapiens, UniProt O95342)
# Construct: purchased SOLVO Biotechnology Charles River Laboratories, Szeged, Hungary; host or cells: HEK293 (inside out membrane vesicles)
# Protocol Notes: BSEP Vesicular Transport Inhibition Assay (IC50 determination)
# Format: biochemical
# Condition Details: human BSEP (HEK293) vesicles; taurocholate 0.2 μM; 4 mM Mg-ATP; 10 concentrations, 1 replicate
Label Yes when BSEP Inhibition/IC50 is at or above 8 µM; otherwise label No.

Below are worked cases with known answers.
CCN(C)S(=O)(=O)Nc1ccc(F)c(Oc2ccc3ncc([C@H]4COC5(CCN(C6CCC(c7cc8c(cc7F)c(N7CCC(=O)NC7=O)nn8C)CC6F)CC5)C4)nc3c2)c1C#N (single isomer, unassigned) [Compound 160]
No
CCN(C)S(=O)(=O)Nc1ccc(F)c(Oc2ccc3ncn([C@@H]4CCC5(CCN(C6CCC(c7cc8c(cc7F)c(N7CCC(=O)NC7=O)nn8C)CC6)CC5)C4)c(=O)c3c2)c1C#N (single isomer, unassigned) [Compound 31]
No
Cn1nc(N2CCC(=O)NC2=O)c2cc(F)c(N3CC4(CC(N5CCC6(CC5)C[C@@H](n5cnc7ccc(Oc8c(F)ccc(NS(=O)(=O)N9CC%10(CCC%10)C9)c8C#N)cc7c5=O)CO6)C4)C3)cc21 [Compound 254]
No
CCN(C)S(=O)(=O)Nc1ccc(F)c(Oc2ccc3ncn([C@H]4COC5(CCN(C6CC(c7cc8c(cc7F)c(N7CCC(=O)NC7=O)nn8C)C6)CC5)C4)c(=O)c3c2)c1C#N (single isomer, unassigned) [Compound 70]
No
CCN(C)S(=O)(=O)Nc1ccc(F)c(Oc2ccc3ncn(C4CC5(CCN(C6CCC(c7cc8c(cc7F)c(N7CCC(=O)NC7=O)nn8C)CC6F)CC5)C4)c(=O)c3c2)c1C#N (single isomer, unassigned) [Compound 86]
Yes
CCN(C)S(=O)(=O)Nc1ccc(F)c(Oc2ccc3ncc([C@H]4COC5(CCN(C6CC7(C6)CN(c6cc8c(cc6F)c(N6CCC(=O)NC6=O)nn8C)C7)CC5)C4)nc3c2)c1C#N [Compound 158]
No

Please look at the following molecule next.
Q: # bool: BSEP Inhibition/IC50 of Cn1nc(N2CCC(=O)NC2=O)c2cc(F)c(N3CC4(CC(N5CCC6(CC5)CC(n5cnc7ccc(Oc8c(F)ccc(NS(=O)(=O)C9CCCC9)c8C#N)cc7c5=O)C6)C4)C3)cc21 [Compound 250] >= 8 µM
Result: Yes

###

# Protocol Notes: Pharmacokinetics in female BALB/c nude mice bearing A375 xenografts, 1 day dosing (PK and PD study): plasma, tumor and brain concentrations, AUC
# Type: in vivo
# Condition Details: mouse, plasma, po, 3 mg/kg, 3 mg/kg p.o. BID × 1 day; post 1st dose; 0.5 h; read-out: Mean Concentration in Plasma ± SEM
Metric Name: concentration at 0.5 h
Don't forget the unit after the value.

Q: Which concentration at 0.5 h is listed for CCN(C)S(=O)(=O)Nc1ccc(F)c(Oc2ccc3ncn([C@H]4COC5(CCN(C6CC7(C6)CN(c6cc8c(cc6F)c(N6CCC(=O)NC6=O)nn8C)C7)CC5)C4)c(=O)c3c2)c1C#N [Compound 26] ?
Result: 8140 ng/mL

###

# Protocol Notes: Pharmacokinetics in female BALB/c nude mice bearing A375 xenografts, 1 day dosing (PK and PD study): plasma, tumor and brain concentrations, AUC
# Format: in vivo
# Condition Details: mouse, plasma, po, 10 mg/kg, 10 mg/kg p.o. BID × 1 day; post 1st dose; 2 h; read-out: Mean Concentration in Plasma ± SEM
Metric Name: concentration at 2 h (ng/mL)
Kindly provide the numeric value in ng/mL only, without the unit symbol.

Q: Which concentration at 2 h is listed for CCN(C)S(=O)(=O)Nc1ccc(F)c(Oc2ccc3ncn([C@H]4COC5(CCN(C6CC7(C6)CN(c6cc8c(cc6F)c(N6CCC(=O)NC6=O)nn8C)C7)CC5)C4)c(=O)c3c2)c1C#N [Compound 26] ?
Result: 18800

###

# Protocol Notes: Pharmacokinetics in female BALB/c nude mice bearing A375 xenografts, 1 day dosing (PK and PD study): plasma, tumor and brain concentrations, AUC
# Type: in vivo
# Condition Details: mouse, plasma, po, 2 mg/kg, 2 mg/kg p.o. TID × 1 day; post 2nd dose; 0.25 h; read-out: Mean Concentration in Plasma ± SEM
Metric Name: concentration at 0.25 h (ng/mL)
Kindly provide the numeric value in ng/mL only, without the unit symbol.

Q: Which concentration at 0.25 h is listed for CCN(C)S(=O)(=O)Nc1ccc(F)c(Oc2ccc3ncn([C@H]4COC5(CCN(C6CC7(C6)CN(c6cc8c(cc6F)c(N6CCC(=O)NC6=O)nn8C)C7)CC5)C4)c(=O)c3c2)c1C#N [Compound 26] ?
Result: 1390
